These measurements were taken from patent US9060515B2.

- Tested on: E. faecalis (ATCC 29212)
- protocol summary: Antibacterial susceptibility testing (MIC, broth microdilution or agar dilution), E. faecalis
- Type: cell-based
- conditions used: Enterococcus faecalis, ATCC29212; read-out: E. faecalis (ATCC 29212) minimal inhibitory concentration (MIC)
readout: MIC

compound: CCNC(=O)Nc1cc(Nc2ccccc2)c(C(=O)Nc2ccn(CC(=O)O)n2)cn1 [Compound 233]
MIC: 2 µg/mL
--
compound: CCNC(=O)Nc1cc(Nc2ccc(F)c(Cl)c2)c(C(=O)Nc2ccc(CCC(=O)O)cc2)cn1 [Compound 229]
MIC: ≤ 1 µg/mL
--
compound: CCNC(=O)Nc1cc(Nc2ccc(Cl)cc2F)c(C(=O)Nc2ccc(CCC(=O)OCC)cc2)cn1 [Compound 219]
MIC: ≤ 1 µg/mL

What the record says about CCNC(=O)Nc1cc(Nc2cccc(F)c2)c(C(=O)Nc2ccc(CCC(=O)OCC)cc2)cn1 [Compound 216] : MIC is ≤ 1 µg/mL

What the record says about CCNC(=O)Nc1cc(Nc2ccnc(OC)c2)c(C(=O)Nc2ccc(CC(C)(C)C(=O)O)cc2)cn1 [Compound 187] : MIC is ≤ 1 µg/mL

What the record says about CCNC(=O)Nc1cc(Nc2ccc(F)cc2)c(C(=O)Nc2ccc(CN3CCCC3)cc2)cn1 [Compound 200] : MIC is 2 µg/mL

What the record says about CCNC(=O)Nc1cc(Nc2ccc(C#N)cc2)c(C(=O)Nc2ccc(CN3CCN(C)CC3)cc2)cn1 [Compound 205] : MIC is ≤ 1 µg/mL

What the record says about CCNC(=O)Nc1cc(Nc2ccc(F)cc2)c(C(=O)Nc2ccc(CN3CCN(C)CC3)cc2)cn1 [Compound 202] : MIC is 2 µg/mL

###

- Test system: E. faecalis (ATCC 29212)
- protocol summary: Antibacterial susceptibility testing (MIC, broth microdilution or agar dilution), E. faecalis
- Type: cell-based
- conditions used: Enterococcus faecalis, ATCC29212; read-out: E. faecalis (ATCC 29212) minimal inhibitory concentration (MIC)
readout: MIC

Here is how some molecules turned out for MIC.
molecule: CCNC(=O)Nc1cc(Nc2ccccc2)c(C(=O)Nc2ccnc(C(=O)OC)c2)cn1 [Compound 21]
assayed system: E. faecalis (ATCC 29212)
MIC: ≤ 1 µg/mL

molecule: CCNC(=O)Nc1cc(Nc2cccc(C)c2)c(C(=O)Nc2cccc(C)c2)cn1 [Compound 1]
assayed system: E. faecalis (ATCC 29212)
MIC: ≤ 1 µg/mL

Now consider the entry below.
What the record says about CCNC(=O)Nc1cc(Nc2cccnc2)c(C(=O)Nc2ccccc2)cn1 [Compound 13] : MIC is ≤ 1 µg/mL
